Reference source: ChEMBL document CHEMBL1125574

Test system: Nucleic Acid
Assay: DNA binding activity as denaturation temperatures on AT to poly (dA)-poly(dT) normalized to ethidium bromide
Type: functional
ΔTm by entry:
outcome_measure: ΔTm

> print(dat)
                                input.smiles  observed
 1   N=C(N)c1ccc(NCCCCCNc2ccc(C(=N)N)cc2)cc1       2.1
 2     N=C(N)c1ccc(NCCCNc2ccc(C(=N)N)cc2)cc1       2.6
 3  N=C(N)c1ccc(NCCNc2ccc(C(=N)N)cc2N)c(N)c1       1.7
 4  Cn1cc(NC(=O)c2cc(NC(=O)CNC(=N)N)cn2C)cc1C(=O)NCCC(=N)N       4.7
 5  N=C(N)c1ccc(OCCCCCCOc2ccc(C(=N)N)cc2)cc1       1.9
 6    N=C(N)c1ccc(OCCCCOc2ccc(C(=N)N)cc2)cc1       1.8
 7  N=C(N)c1ccc(OCCCCOc2ccc(C(=N)N)cc2[N+](=O)[O-])c([N+](=O)[O-])c1       1.5
 8     N=C(N)c1cccc(OCCCOc2cccc(C(=N)N)c2)c1       0.9
 9  COc1cc(C(=N)N)ccc1OCCCOc1ccc(C(=N)N)cc1OC       3.8
10  N=C(N)c1ccc(OCCCCOc2ccc(C(=N)N)cc2Cl)c(Cl)c1       2.1
11  COc1cc(C(=N)N)ccc1OCCCCCOc1ccc(C(=N)N)cc1OC       2.7
12    N=C(N)c1cccc(OCCCCOc2cccc(C(=N)N)c2)c1       1.5
13  N=C(N)c1ccc(OCCCCOc2ccc(C(=N)N)cc2N)c(N)c1         2
14  Cn1cc(NC(=O)c2cc(NC(=O)c3cc(NC=O)cn3C)cn2C)cc1C(=O)NCCC(=N)N       3.1
15  COc1cc(C(=N)N)ccc1OCCCCOc1ccc(C(=N)N)cc1OC       2.3
16      N=C(N)c1ccc(OCCOc2ccc(C(=N)N)cc2)cc1       0.8
